Attribution: PubChem BioAssay AID1199

Test system: mouse carcinogenicity bioassay, TD50 from CPDB
Experiment: DSSTox (CPDBAS) Carcinogenic Potency Database Summary Mouse Bioassay Results
Settings: TD50_Mouse_Note: TD50 is harmonic mean of more than one positive test; TargetSites_Mouse_Female: liver; lung
measurementLabel: Potency

Examples with answers:
# compound, result
rows = [
    ("CCCCC/C=N/N(C)C=O", "0.0149 mmol/kg/day"),
    ("CNN", "0.164 mmol/kg/day"),
    ("Cc1cc(C)c(N)cc1C", "0.265 mmol/kg/day"),
    ("ClCCl", "13 mmol/kg/day"),
    ("ClC1C(Cl)C(Cl)C(Cl)C(Cl)C1Cl (stereo not drawn)", "0.106 mmol/kg/day"),
    ("CCCC/C=N/N(C)C=O", "0.0241 mmol/kg/day"),
]

Parameters: items (list). Returns: Potency for each item.
1. O=c1ccc2ccccc2o1
2. Cc1cnc2ccc3c(nc(N)n3C)c2n1

1: 0.705 mmol/kg/day; 2: 0.114 mmol/kg/day

====

Tested on: mouse carcinogenicity bioassay, TD50 from CPDB
Test: DSSTox (CPDBAS) Carcinogenic Potency Database Summary Mouse Bioassay Results
Conditions: TD50_Mouse_Note: TD50 is harmonic mean of more than one positive test; harmonic mean of TD50 includes a value for upper 99% confidence li; TargetSites_Mouse_Female: lung; vascular system
measurementLabel: Potency

For this compound ( CNNC ), measured Potency is 0.000857 mmol/kg/day

====

System: mouse carcinogenicity bioassay, TD50 from CPDB
Assay: DSSTox (CPDBAS) Carcinogenic Potency Database Summary Mouse Bioassay Results
Details: TD50_Mouse_Note: TD50 is harmonic mean of more than one positive test; greater than ten-fold variation among TD50 values for positive res; TargetSites_Mouse_Female: liver
Kindly supply the reported Potency values for the records listed here.

# molecule, subjectOfTest, Potency
rows = [
    ("COC(=O)C(C)(C)Oc1ccc(-c2ccc(Cl)cc2)cc1", "mouse carcinogenicity bioassay, TD50 from CPDB", "0.00824 mmol/kg/day"),
    ("C1COCCO1", "mouse carcinogenicity bioassay, TD50 from CPDB", "2.32 mmol/kg/day"),
    ("CCOC(=O)C(O)(c1ccc(Cl)cc1)c1ccc(Cl)cc1", "mouse carcinogenicity bioassay, TD50 from CPDB", "0.289 mmol/kg/day"),
    ("CCSCCC(N)C(=O)O (stereo not drawn)", "mouse carcinogenicity bioassay, TD50 from CPDB", "0.437 mmol/kg/day"),
]

Parameters: items (list). Returns: Potency for each item.
1. Oc1ccc(O)cc1
2. Cc1nc(N)cc2[nH]c3ccccc3c12
3. ClC(Cl)Cl

2.04 mmol/kg/day
0.049 mmol/kg/day
0.93 mmol/kg/day

Bench note, mouse carcinogenicity bioassay, TD50 from CPDB: entry ClC1=C(Cl)[C@@]2(Cl)[C@@H]3[C@@H](Cl)[C@H](Cl)C[C@@H]3C1(Cl)C2(Cl)Cl , its Potency = 0.00334 mmol/kg/day

====

System: mouse carcinogenicity bioassay, TD50 from CPDB
Test: DSSTox (CPDBAS) Carcinogenic Potency Database Summary Mouse Bioassay Results
Conditions: TD50_Mouse_Note: TD50 is harmonic mean of more than one positive test; greater than ten-fold variation among TD50 values for positive res; TargetSites_Mouse_Female: liver; urinary bladder
measurementLabel: Potency

For this compound ( CC(=O)Nc1ccc2c(c1)Cc1ccccc1-2 ), measured Potency is 0.034 mmol/kg/day

====

Test system: mouse carcinogenicity bioassay, TD50 from CPDB
Assay: DSSTox (CPDBAS) Carcinogenic Potency Database Summary Mouse Bioassay Results
Details: TD50_Mouse_Note: TD50 is harmonic mean of more than one positive test; TargetSites_Mouse_Female: harderian gland; hematopoietic system; lung; mammary gland; uterus
measurementLabel: Potency

For this molecule ( C1CO1 ), measured Potency is 1.45 mmol/kg/day

====

Test system: mouse carcinogenicity bioassay, TD50 from CPDB
Assay: DSSTox (CPDBAS) Carcinogenic Potency Database Summary Mouse Bioassay Results
Settings: TargetSites_Mouse_Female: liver
Text: The Carcinogenic Potency Database (CPDB) is a unique and widely used international resource of the results of over 6500 chronic, long-term animal cancer tests on over 1500 chemical substances. The CPDB provides easy access to the bioassay literature, with qualitative and quantitative analyses of both positive and negative experiments that have been published over the past 50 years in the general literature and by the National Cancer Institute/National Toxicology Program. […]
Kindly supply the reported Potency values for the records listed here.

# compound, result
records = [
    ("COc1ccc([N+](=O)[O-])cc1N", "22.1 mmol/kg/day"),
]

Parameters: items (list). Returns: Potency for each item.
1. c1ccc(NNc2ccccc2)cc1
2. Nc1ccc(Cl)c(N)c1
3. CO[C@H]1/C=C/O[C@@]2(C)Oc3c(C)c(O)c4c(O)c(c(/C=N/N5CCN(C)CC5)c(O)c4c3C2=O)NC(=O)/C(C)=C\C=C\[C@H](C)[C@H](O)[C@@H](C)[C@@H](O)[C@@H](C)[C@H](OC(C)=O)[C@@H]1C
4. O=C1CCc2ccccc2O1
5. C=CC(O)c1ccc(OC)cc1 (stereo not drawn)

0.141 mmol/kg/day
8.63 mmol/kg/day
0.0408 mmol/kg/day
4.88 mmol/kg/day
0.352 mmol/kg/day

====

System: mouse carcinogenicity bioassay, TD50 from CPDB
Test: DSSTox (CPDBAS) Carcinogenic Potency Database Summary Mouse Bioassay Results
Settings: TargetSites_Mouse_Female: liver; ovary
measurementLabel: Potency

Bench note, mouse carcinogenicity bioassay, TD50 from CPDB: entry O=[N+]([O-])c1ccc2c3c(cccc13)CC2 , its Potency = 0.23 mmol/kg/day

====

System: mouse carcinogenicity bioassay, TD50 from CPDB
Test: DSSTox (CPDBAS) Carcinogenic Potency Database Summary Mouse Bioassay Results
Settings: TD50_Mouse_Note: TD50 is harmonic mean of more than one positive test; TargetSites_Mouse_Female: liver; pituitary gland; thyroid gland
measurementLabel: Potency

For this compound ( S=C1NCCN1 ), measured Potency is 0.23 mmol/kg/day

====

System: mouse carcinogenicity bioassay, TD50 from CPDB
Test: DSSTox (CPDBAS) Carcinogenic Potency Database Summary Mouse Bioassay Results
Conditions: TD50_Mouse_Note: TD50 is harmonic mean of more than one positive test; TargetSites_Mouse_Female: nasal cavity
measurementLabel: Potency

For this molecule ( CC1CO1 (stereo unspecified) ), measured Potency is 15.7 mmol/kg/day

====

Tested on: mouse carcinogenicity bioassay, TD50 from CPDB
Assay: DSSTox (CPDBAS) Carcinogenic Potency Database Summary Mouse Bioassay Results
Conditions: TD50_Mouse_Note: TD50 is harmonic mean of more than one positive test; TargetSites_Mouse_Female: liver
measurementLabel: Potency

Parameters: items (list). Returns: Potency for each item.
1. Cc1ccc(N)cc1
2. ClC(Cl)C(Cl)(Cl)Cl
3. COC(=O)C(c1ccccc1)C1CCCCN1 (stereo unspecified)
4. ClCC(Cl)(Cl)Cl
5. Clc1cc2c(c(Cl)c1Cl)Oc1c(cc(Cl)c(Cl)c1Cl)O2
6. O=C1C2(Cl)C3(Cl)C4(Cl)C(Cl)(Cl)C5(Cl)C3(Cl)C1(Cl)C5(Cl)C24Cl (stereo unspecified)

["0.581 mmol/kg/day", "0.283 mmol/kg/day", "0.371 mmol/kg/day", "1.08 mmol/kg/day", "3.66e-06 mmol/kg/day", "0.002 mmol/kg/day"]

====

Tested on: mouse carcinogenicity bioassay, TD50 from CPDB
Assay: DSSTox (CPDBAS) Carcinogenic Potency Database Summary Mouse Bioassay Results
Details: TargetSites_Mouse_Female: harderian gland; pituitary gland
measurementLabel: Potency

Bench note, mouse carcinogenicity bioassay, TD50 from CPDB: entry CC(I)C1OCC(CO)O1 (stereo unspecified) , its Potency = 0.535 mmol/kg/day

====

Tested on: mouse carcinogenicity bioassay, TD50 from CPDB
Experiment: DSSTox (CPDBAS) Carcinogenic Potency Database Summary Mouse Bioassay Results
Conditions: TD50_Mouse_Note: TD50 is harmonic mean of more than one positive test; TargetSites_Mouse_Female: stomach
measurementLabel: Potency

# compound, result
rows = [
    ("C=C(C)CCl", "0.858 mmol/kg/day"),
]

Parameters: items (list). Returns: Potency for each item.
1. Oc1ccc2c(c1)OCO2
2. Oc1ccccc1O
3. c1ccc(C2CO2)cc1 (stereo unspecified)
4. C/C=C/C=C/C=O
5. ClCc1cccnc1

32.5 mmol/kg/day
2.22 mmol/kg/day
0.982 mmol/kg/day
1.83 mmol/kg/day
1.4 mmol/kg/day

Parameters: items (list). Returns: Potency for each item.
1. OCCBr
2. c1cc(OCC2CO2)cc(OCC2CO2)c1 (stereo unspecified)
3. ClCc1ccccc1
4. CCCCOCCO
5. C=CC(=O)OCC

1: 0.609 mmol/kg/day; 2: 0.109 mmol/kg/day; 3: 0.486 mmol/kg/day; 4: 14.5 mmol/kg/day; 5: 3.24 mmol/kg/day

====

Tested on: mouse carcinogenicity bioassay, TD50 from CPDB
Experiment: DSSTox (CPDBAS) Carcinogenic Potency Database Summary Mouse Bioassay Results
Kindly supply the reported Potency values for the records listed here.

Examples with answers:
# molSmiles, Potency
data = [
    ("CN(N=O)C(N)=O", "0.0119 mmol/kg/day"),
    ("c1ccc2c(c1)ccc1cc3c(ccc4ccccc43)cc12", "0.0211 mmol/kg/day"),
    ("O=NN1CCCC1", "0.00678 mmol/kg/day"),
]

Now take the following compound into account.
For this compound ( O=C1c2cccc(O)c2C(=O)c2c(O)cccc21 ), measured Potency is 0.837 mmol/kg/day
